# experimental-system: T1, TNF-beta (human, UniProt P01374 35-205)
# T1 construct: also called TNFβ; Tumour Necrosis Factor-beta
# T1 sequence (looked up): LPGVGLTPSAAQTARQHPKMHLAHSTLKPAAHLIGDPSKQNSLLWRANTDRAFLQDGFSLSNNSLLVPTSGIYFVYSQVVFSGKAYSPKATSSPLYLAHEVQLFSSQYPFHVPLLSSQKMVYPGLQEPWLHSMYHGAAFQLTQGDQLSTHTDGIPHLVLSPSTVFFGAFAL
# assay-text: phage ELISA
measured-parameter: binding result

>  <binder>
I031C03 (scFv) scFv: QMQLVQSGAEVRKPGSSVKVSCKASGGSFSSHVFSWVRQAPGQGLEWVGGITPKFATPNYAQKFQHRVTITADELTRTVFMDLSGLRSEDTAVYYCARGYDSSAFRAFDIWGQGTLVTVSSGGGGSGGGGSGGGGSAQSVLTQPPSVSAAPGQKVTISCSGSSSNIGNNYVSWYQQFPGTAPKLLIYDNNNRPSGVPDRFSGSKSGTSATLGITGLQTGDEADYYCGTWDRSLSVVVFGGGTKVTVLG

>  <result>
no binding

$$$$
>  <binder>
I037E12 (scFv) scFv: EVQLVQSGAEVKKPGASVKVSCKASGYTFTNYGITWVRQAPGQGLEWMGWISAYNGNRNYAQKLQGRVTMTTDTSTSTAYMELRSLRSDDTAVYYCVRDGIDILLVPAALMDVWGKGTLVTVSSGGGGSGGGGSGGGGSQSVLTQPASVSGSPGQSITISCTGTSSDVGGYNYVSWYQQHPGKAPKLMIYEGNKRPSGVSNRFSGSKSGNTASLTISGLQAEDEADYYCSSYTTRSTRVFGGGTKLTVLG

>  <result>
no binding

$$$$
>  <binder>
I074B12 (scFv) scFv: EVQLVQSGAEVKKPGSSVKVSCRASGGSFNHAISWVRQAPGRGLEWMGGILPMYGTANYAQKFQGRVTITADKLTNTVYMDLSRLRYEDTAVYYCARELGLSIVGATTGALDMWGRGTLVTVSSGGGGSGGGGSGGGGSALSYELTQPPSASGTPGQRVTISCSGSTSNIGSNAVNWYRQLPGTAPKLLVYSNNQVPSGVPDRFSGSKSGTSASLAISGLQSEDEADYYCAAWDDSLSGYVFGTGTQLTVLS

>  <result>
no binding

$$$$

Where do these numbers come from? They come from patent US20110293610A1.
